B1: glmS ribozyme (parent)
chain: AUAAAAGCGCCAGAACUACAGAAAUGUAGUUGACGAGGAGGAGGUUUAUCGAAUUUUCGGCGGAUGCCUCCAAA

# Variants of: B1
# assay_summary: self-cleavage kobs at 10000 uM GlcN6P; higher = faster cleavage; RNA array
# measurement_parameters: with glucosamine-6-phosphate
Fewer inactive variants are shown than the library holds.
# binning rule on self-cleavage kobs at 10000 uM GlcN6P: low interval = under 0.0001 s⁻¹, middle interval = from 0.0001 s⁻¹ up to 0.0008 s⁻¹, high interval = 0.0008 s⁻¹ and over

| mutation_descriptor | label_value |
| --- | --- |
| A12C G29U U47G | high interval |
| G44C C70A | low interval |
| G41C U46A | low interval |
| G29U U54A C71U | high interval |
| A39U A52G C67G | middle interval |
| A12C G13U | middle interval |
| G44A U47A C71A | low interval |
| G66U C67G | middle interval |
| G40U C71G | high interval |
| G7U G37C C61A C68G C70U | low interval |
| A15C G37U | low interval |
| C16G G35U | low interval |
| A42U C71U | middle interval |
| C8U G32C A36C G38C | low interval |
| C58A G60C | low interval |
| C71U | high interval |
| A12C A15U C16U C70U | middle interval |
| A14G C16A G29C A53G | high interval |
| G41C U49A U65A | low interval |
| G7A U55G C67U C70G | low interval |
| A14U A53U C68G | low interval |
